Target: AHR (Mus musculus, UniProt P30561)
Sequence (P30561 whole entry P471L/N533S/M589L, form open): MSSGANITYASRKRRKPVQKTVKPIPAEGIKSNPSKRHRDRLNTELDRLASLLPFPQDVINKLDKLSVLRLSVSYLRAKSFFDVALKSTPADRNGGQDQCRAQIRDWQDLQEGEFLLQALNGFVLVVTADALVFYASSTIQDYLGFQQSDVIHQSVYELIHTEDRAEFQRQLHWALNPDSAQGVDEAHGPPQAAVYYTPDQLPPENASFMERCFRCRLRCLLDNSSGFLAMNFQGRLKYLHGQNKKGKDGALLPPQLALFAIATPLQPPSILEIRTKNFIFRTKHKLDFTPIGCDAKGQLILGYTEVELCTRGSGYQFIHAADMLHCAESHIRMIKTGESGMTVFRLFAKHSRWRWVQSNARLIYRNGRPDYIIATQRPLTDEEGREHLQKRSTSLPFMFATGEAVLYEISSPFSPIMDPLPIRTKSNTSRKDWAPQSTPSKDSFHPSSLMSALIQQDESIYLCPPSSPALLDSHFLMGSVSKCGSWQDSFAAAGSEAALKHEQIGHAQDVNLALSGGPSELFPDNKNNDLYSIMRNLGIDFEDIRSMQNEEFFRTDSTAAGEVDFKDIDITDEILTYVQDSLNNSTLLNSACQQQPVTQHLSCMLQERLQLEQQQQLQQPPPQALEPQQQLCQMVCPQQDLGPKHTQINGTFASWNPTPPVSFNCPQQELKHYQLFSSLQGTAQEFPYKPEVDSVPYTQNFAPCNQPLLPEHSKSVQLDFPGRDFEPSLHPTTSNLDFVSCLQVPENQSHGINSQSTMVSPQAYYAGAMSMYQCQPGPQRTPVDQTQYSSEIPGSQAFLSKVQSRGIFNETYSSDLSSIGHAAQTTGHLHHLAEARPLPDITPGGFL
Assay: In vitro assay 3: antagonism in mouse cell line (AHR transactivation, firefly luciferase reporter, kynurenic acid prestimulated)
Format: cell-based
Conditions: mouse Hepa 1c1c7 cells, 200 μM kynurenic acid, 20 hours, read-out: AHR Antagonism Mouse IC50
Method: Examples were tested in selected biological assays one or more times. […] Firefly luciferase activity was determined by the SteadyGlo Luciferase Assay System (Promega, #E2550).
measurement.type: IC50 (µM)

Some solved cases for reference:
compound: O=C1NCCCC[C@@H]1Nc1nc2ccccc2c2nc(-c3cc(Cl)ccc3OC(F)(F)F)nn12 [Example 498]
IC50 (µM): 0.7
//
compound: CC[C@@H](Nc1nc2c(Br)cccc2c2nc(-c3cnn(C)c3)nn12)C(N)=O [Example 696]
IC50 (µM): 0.00897
//
compound: CC[C@H](Nc1nc2c(Br)cccc2c2nc(-c3ccc(Cl)cc3OC(F)(F)F)nn12)C(N)=O [Example 574]
IC50 (µM): 0.00107

P = Cc1ccc(-c2nc3c4ccccc4nc(N[C@@H]4CCCCNC4=O)n3n2)cc1 [Example 56]
Q = O=C1NCCC[C@H]1Nc1nc2ccccc2c2nc(-c3ccc(OC(F)(F)F)cc3)nn12 [Example 332]
Lower value of IC50 belongs to which: P or Q ? // respond with label for picked entry
P
(P: 0.00018 µM, Q: 0.00604 µM)

P = Cc1cccc2c1nc(N[C@@H]1CCCCNC1=O)n1nc(-c3cnn(C)c3)nc21 [Example 142]
Q = O=C1NCCC1Nc1nc2ccccc2c2nc(-c3ccc(F)cc3)nn12 (centres unmarked) [Example 73]
Which of the two gives a bigger number for IC50: P or Q ? // respond with label for picked entry
P

A = COc1ccc(-c2nc3c4ccccc4nc(N[C@H]4CCCCNC4=O)n3n2)c(C(F)(F)F)c1 [Example 513]
B = Cn1cc(-c2nc3c4cccc(C(F)(F)F)c4nc(NC4C(=O)NCC4(C)C)n3n2)cn1 (single isomer, unassigned; (-)) [Example 729]
C = COc1ccc(-c2nc3c4c(C5COC5)cccc4nc(N[C@@H]4CCCCNC4=O)n3n2)cc1 [Example 396]
D = CCC[C@@H](Nc1nc2ccccc2c2nc(-c3cc(Cl)ccc3OC(F)(F)F)nn12)C(=O)NC [Example 501]
E = Cc1nn(C(C)C)cc1-c1nc2c3cccc(C(F)(F)F)c3nc(N[C@@H]3CCCCNC3=O)n2n1 [Example 748]
Hey, can you sort those compounds up there by IC50, smallest first? Please express your ranking as an ordered list of the labels.
E, C, A, D, B

---

Target: AHR (Homo sapiens, UniProt P35869)
Construct: U87 MG glioblastoma cells (ATCC #HTB-14) endogenously expressing AHR; endogenous in cells; host or cells: U87 MG glioblastoma cells (ATCC #HTB-14)
Experiment: In vitro assay 1: antagonism in human cell line (AHR transactivation, firefly luciferase reporter, kynurenic acid prestimulated)
Type: cell-based
Conditions: AHR Antagonism Human IC50 [M], firefly luciferase reporter
Experimental: Examples were tested in selected biological assays one or more times. […] Firefly luciferase and Renilla activity was determined by the DualGlo Luciferase Assay System (Promega, #2920). […]
measurement.type: IC50 (M)

compound: COCc1cccc2c1nc(N[C@@H]1CCCCNC1=O)n1nc(-c3ccc(OC)cc3)nc21 [Example 1003]
IC50, M: 9.15e-10
--
compound: CCNC(=O)[C@H](CC)Nc1nc2c(Br)cccc2c2nc(-c3ccc(Cl)cc3OC(F)F)nn12 [Example 799]
IC50, M: 4.21e-08
--
compound: Cn1cc(-c2nc3c4cccc(Br)c4nc(N[C@H]4C[S+]([O-])CCNC4=O)n3n2)cn1 (single isomer, unassigned) [Example 849]
IC50, M: 4.87e-07
--
compound: CC(C)n1cc(-c2nc3c4cccc(Br)c4nc(N[C@@H]4CNCCNC4=O)n3n2)cn1 [Example 981]
IC50, M: 2.69e-09
--
compound: COc1ccc(-c2nc3c4cccc(Br)c4nc(N[C@H](C)C(=O)N4C[C@@H]5C[C@H]4CO5)n3n2)cc1 [Example 914]
IC50, M: 8.96e-10

a = CCCCNC(=O)[C@@H](CC)Nc1nc2c(Br)cccc2c2nc(-c3ccc(Cl)cc3OC(F)(F)F)nn12 [Example 814]
b = Cn1cc(-c2nc3c4cccc(Br)c4nc(N[C@H]4CS(=N)(=O)CCNC4=O)n3n2)cn1 (single isomer, unassigned) [Example 857]
c = COc1ccc(-c2nc3c4cccc(Br)c4nc(N[C@H](C)C(=O)NCCN4CCCCC4)n3n2)cc1 [Example 895]
d = Cn1cc(-c2nc3c4cccc(S(C)(=O)=O)c4nc(N[C@@H]4CCCCNC4=O)n3n2)cn1 [Example 858]
e = CC(C)S(=O)(=O)c1cccc2c1nc(N[C@@H]1CNCCNC1=O)n1nc(-c3cnn(C)c3)nc21 [Example 943]
Hey, can you sort those compounds up there by IC50, smallest first? Please express your ranking as an ordered list of the labels.
c, a, d, e, b
(c: 1.18e-08 M, a: 2.5e-08 M, d: 1.07e-07 M, e: 9.47e-07 M, b: 4.25e-06 M)

P = CCOC(=O)[C@@H](C)Nc1nc2c(Br)cccc2c2nc(-c3ccc(OC)cc3)nn12 [Example 865]
Q = COC(=O)[C@H](Nc1nc2c(Br)cccc2c2nc(-c3ccc(OC)cc3)nn12)C(C)C [Example 867]
Which of the two gives a bigger number for IC50: P or Q ? // respond with label for picked entry
P

---

target: AHR (Homo sapiens, UniProt P35869); construct: U87 MG glioblastoma cells (ATCC #HTB-14) endogenously expressing AHR; endogenous in cells; host or cells: U87 MG glioblastoma cells (ATCC #HTB-14); assay: In vitro assay 1: antagonism in human cell line (AHR transactivation, firefly luciferase reporter, kynurenic acid prestimulated); assay type: cell-based; conditions: AHR Antagonism Human IC50 [M]
measurement.type: IC50 (M)

Some solved cases for reference:
molecule: O=C1NCCNC[C@H]1Nc1nc2ccccc2c2nc(-c3ccccc3C(F)(F)F)nn12
IC50 / M: 1.37e-06
--
molecule: O=C1NCCCC[C@H]1Nc1nc2ccccc2c2nc(-c3nc(CCO)no3)nn12
IC50 / M: 2.97e-07
--
molecule: CCC[C@@H](Nc1nc2ccccc2c2nc(-c3ccncc3F)nn12)C(=O)NC
IC50 / M: 3.34e-07
--
molecule: O=C1NCCCC[C@H]1Nc1nc2ccccc2c2nc(-c3ccn4ccnc4c3)nn12
IC50 / M: 1.38e-09
--
molecule: O=C1NCC[C@H]1Nc1nc2ccccc2c2nc(-c3ccncc3F)nn12
IC50 / M: 1.45e-06

a = CC[C@H](Nc1nc2c(Br)cccc2c2nc(-c3ccc(Cl)cc3OC(F)(F)F)nn12)C(N)=O
b = O=C1NCCCC[C@H]1Nc1nc2ccccc2c2nc(-c3cnn(C4COC4)c3)nn12
Which of the two gives a bigger number for IC50: a or b ? // respond with label for picked entry
b

a = O=C1NCCC[C@H]1Nc1nc2c(Br)cccc2c2nc(-c3ccccc3OC(F)(F)F)nn12
b = Cn1cc(-c2nc3c4c(C(F)(F)F)cccc4nc(N[C@@H]4CNCCNC4=O)n3n2)cn1
Lower value of IC50 belongs to which: a or b ? // respond with label for picked entry
a

---

Molecular target: AHR (Homo sapiens, UniProt P35869)
Construct: U87 MG glioblastoma cells (ATCC #HTB-14) endogenously expressing AHR; endogenous in cells; host or cells: U87 MG glioblastoma cells (ATCC #HTB-14)
Sequence (P35869 11-848): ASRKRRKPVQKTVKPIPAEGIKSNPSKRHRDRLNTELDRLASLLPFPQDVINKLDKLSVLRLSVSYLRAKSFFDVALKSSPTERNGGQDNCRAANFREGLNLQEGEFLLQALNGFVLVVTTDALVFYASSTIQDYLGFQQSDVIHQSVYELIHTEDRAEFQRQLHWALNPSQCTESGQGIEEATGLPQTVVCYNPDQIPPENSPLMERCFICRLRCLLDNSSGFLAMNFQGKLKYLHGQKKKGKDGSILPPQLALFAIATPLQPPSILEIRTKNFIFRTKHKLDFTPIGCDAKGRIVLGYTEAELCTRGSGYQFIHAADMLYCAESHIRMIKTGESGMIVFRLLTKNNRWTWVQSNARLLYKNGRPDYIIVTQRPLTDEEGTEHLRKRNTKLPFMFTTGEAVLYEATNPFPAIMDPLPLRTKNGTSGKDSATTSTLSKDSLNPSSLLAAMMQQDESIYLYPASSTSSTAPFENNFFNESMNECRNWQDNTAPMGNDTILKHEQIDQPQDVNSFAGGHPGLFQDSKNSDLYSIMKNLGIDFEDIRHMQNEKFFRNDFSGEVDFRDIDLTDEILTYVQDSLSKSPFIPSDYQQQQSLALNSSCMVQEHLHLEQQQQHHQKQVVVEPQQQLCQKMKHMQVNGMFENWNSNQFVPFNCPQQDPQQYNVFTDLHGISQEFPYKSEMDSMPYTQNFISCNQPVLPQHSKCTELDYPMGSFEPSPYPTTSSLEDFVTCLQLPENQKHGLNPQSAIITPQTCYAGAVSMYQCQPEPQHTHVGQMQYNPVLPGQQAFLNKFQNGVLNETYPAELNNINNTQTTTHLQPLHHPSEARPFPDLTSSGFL
Experiment: In vitro assay 1: antagonism in human cell line (AHR transactivation, firefly luciferase reporter, kynurenic acid prestimulated)
Format: cell-based
Settings: AHR Antagonism Human IC50 [M]
measurement.type: IC50 (M)

molecule: COc1ccc(-c2nc3c4cc(Br)ccc4nc(N[C@@H]4CCCCNC4=O)n3n2)cc1
numeric.readout: 3.06e-09

1 = CC[C@H](Nc1nc2ccccc2c2nc(-c3cccc(C#N)c3)nn12)C(N)=O
2 = COc1ccc(-c2nc3c4cccc(Br)c4nc(N[C@@H]4CCCCNC4=O)n3n2)c(C(F)(F)F)c1
Which of the two gives a bigger number for IC50: 1 or 2 ? // respond with label for picked entry
1
(1: 4.89e-06 M, 2: 8.4e-09 M)

Hey, just so you know, these numbers are from patent US20230113037A1.
